Cited source: ChEMBL document CHEMBL3588838

Experiment: Drug metabolism in rat plasma assessed as compound remaining after 2 hrs by HPLC analysis
Type: ADME, cell-free
Details: read-out: Drug metabolism

{"columns": ["compound", "remaining at 2 h"],
 "data": [
  ["CCC(=O)O[C@]1(C(=O)CO)CC[C@H]2[C@@H]3CCC4=CC(=O)CC[C@]4(C)[C@H]3CC[C@@]21C [CLASCOTERONE]", "50%"]
]}

====

Experiment: Drug metabolism in rat skin homogenate assessed as compound remaining after 5 mins by HPLC analysis
Assay type: ADME, tissue-based, Zone of skin
Settings: read-out: Drug metabolism

{"columns": ["compound", "remaining at 5 min / %"],
 "data": [
  ["CCC(=O)O[C@]1(C(=O)CO)CC[C@H]2[C@@H]3CCC4=CC(=O)CC[C@]4(C)[C@H]3CC[C@@]21C [CLASCOTERONE]", 99]
]}

====

Assay: Drug metabolism in human plasma assessed as compound remaining after 2 hrs by HPLC analysis
Format: ADME, cell-free
Details: read-out: Drug metabolism
measurement type: remaining at 2 h (%)

{"columns": ["compound", "observed value"],
 "data": [
  ["CCC(=O)O[C@]1(C(=O)CO)CC[C@H]2[C@@H]3CCC4=CC(=O)CC[C@]4(C)[C@H]3CC[C@@]21C [CLASCOTERONE]", 67.2]
]}

====

Assay: Drug metabolism in rat skin homogenate assessed as compound remaining after 15 mins by HPLC analysis
Format: ADME, tissue-based, Zone of skin
Conditions: read-out: Drug metabolism
measurement type: remaining at 0.25 h (%)

{"columns": ["compound", "measurement type", "scale unit", "observed value"],
 "data": [
  ["CCC(=O)O[C@]1(C(=O)CO)CC[C@H]2[C@@H]3CCC4=CC(=O)CC[C@]4(C)[C@H]3CC[C@@]21C [CLASCOTERONE]", "remaining at 0.25 h", "%", 99]
]}

====

Assay: Drug metabolism in rat plasma assessed as compound remaining after 15 mins by HPLC analysis
Type: ADME, cell-free
Conditions: read-out: Drug metabolism

{"columns": ["compound", "scale unit", "remaining at 0.25 h"],
 "data": [
  ["CCC(=O)O[C@]1(C(=O)CO)CC[C@H]2[C@@H]3CCC4=CC(=O)CC[C@]4(C)[C@H]3CC[C@@]21C [CLASCOTERONE]", "%", 90]
]}

====

Target: Androgen receptor (Homo sapiens, UniProt P10275)
Sequence (P10275 whole entry): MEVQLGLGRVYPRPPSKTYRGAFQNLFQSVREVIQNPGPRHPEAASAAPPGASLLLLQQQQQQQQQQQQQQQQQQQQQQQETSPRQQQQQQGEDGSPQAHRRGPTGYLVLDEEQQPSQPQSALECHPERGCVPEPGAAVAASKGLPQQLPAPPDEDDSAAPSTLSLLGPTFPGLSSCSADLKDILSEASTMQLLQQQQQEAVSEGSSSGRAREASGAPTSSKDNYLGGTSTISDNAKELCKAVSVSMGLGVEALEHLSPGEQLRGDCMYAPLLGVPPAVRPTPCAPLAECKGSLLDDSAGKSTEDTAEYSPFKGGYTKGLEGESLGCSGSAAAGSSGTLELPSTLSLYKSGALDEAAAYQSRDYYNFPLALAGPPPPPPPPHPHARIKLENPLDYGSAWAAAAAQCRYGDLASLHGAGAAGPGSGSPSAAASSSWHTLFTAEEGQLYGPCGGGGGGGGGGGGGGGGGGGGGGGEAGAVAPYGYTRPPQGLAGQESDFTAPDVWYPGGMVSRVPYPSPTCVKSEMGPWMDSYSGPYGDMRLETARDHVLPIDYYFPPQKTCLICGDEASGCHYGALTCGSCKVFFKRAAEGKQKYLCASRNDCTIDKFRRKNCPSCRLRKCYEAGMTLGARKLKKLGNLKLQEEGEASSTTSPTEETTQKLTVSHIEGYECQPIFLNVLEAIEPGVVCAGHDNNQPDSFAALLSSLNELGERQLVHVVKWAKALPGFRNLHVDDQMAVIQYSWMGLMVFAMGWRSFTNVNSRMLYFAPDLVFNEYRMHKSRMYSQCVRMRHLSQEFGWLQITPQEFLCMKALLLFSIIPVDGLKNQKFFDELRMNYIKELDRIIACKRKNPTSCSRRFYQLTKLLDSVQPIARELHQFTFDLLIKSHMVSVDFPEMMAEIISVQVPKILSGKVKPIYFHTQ
Experiment: Displacement of [3H]methyltrienolone from androgen receptor in human prostate cancer cells

{"columns": ["mol", "study system", "scale unit", "IC50"],
 "data": [
  ["CCC(=O)O[C@]1(C(=O)CO)CC[C@H]2[C@@H]3CCC4=CC(=O)CC[C@]4(C)[C@H]3CC[C@@]21C", "Androgen receptor (Homo sapiens, UniProt P10275)", "nM", 50]
]}

====

Experiment: Drug metabolism in rat plasma assessed as compound remaining after 8 hrs by HPLC analysis
Type: ADME, cell-free
Conditions: read-out: Drug metabolism

{"columns": ["molecule", "remaining at 8 h / %"],
 "data": [
  ["CCC(=O)O[C@]1(C(=O)CO)CC[C@H]2[C@@H]3CCC4=CC(=O)CC[C@]4(C)[C@H]3CC[C@@]21C [CLASCOTERONE]", 0]
]}

====

Assay: Drug metabolism in rat plasma assessed as compound remaining after 0 mins by HPLC analysis
Assay type: ADME, cell-free
Conditions: read-out: Drug metabolism

{"columns": ["mol", "remaining at 0 h (%)"],
 "data": [
  ["CCC(=O)O[C@]1(C(=O)CO)CC[C@H]2[C@@H]3CCC4=CC(=O)CC[C@]4(C)[C@H]3CC[C@@]21C", 100]
]}
